Hey, just so you know, these numbers are from paper PMC12136788.

Assign binding signal to each entry below.
- TEST_SYSTEM: T1, UNK ZnF1-3 (human, UniProt Q9C0B0 31-174)
- T1 sequence: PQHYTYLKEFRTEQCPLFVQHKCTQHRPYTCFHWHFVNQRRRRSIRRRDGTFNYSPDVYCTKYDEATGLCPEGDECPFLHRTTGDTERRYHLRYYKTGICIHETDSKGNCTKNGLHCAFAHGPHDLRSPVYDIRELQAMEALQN
- PROTOCOL_TEXT: nsRBNS (natural sequence RNA bind-n-seq); RBNS binding buffer (assumed for nsRBNS): 25 mM Tris pH 7.5, 150 mM KCl, 3 mM MgCl2, 0.01% Triton X-100, 500 ug/ml BSA, 20 U/ml SUPERase-In, 4 C; UNK is unkempt and MSI1 is Musashi-1; names of the RNAs are library labels; protein concentration not given here; high values mean tight binding
Whole data set: some 24,000 sequences, median “enrichment r” near 0.99, cut for the highest 2% near 3.7. Only a selection was taken, and the highest values are over-represented in it overall.
Give bare numbers, in enrichment R.

INSERT INTO measurements (binder, assay_readout, reported_result) VALUES
  ('chr16:45382771:45382772:-_ENSMUSG00000022661_ENSMUST00000163230|mus_mus|mus_mus_mus_hu_True|18_48 (ssRNA) RNA: GGGAGUUCUACAGUCCGACGAUCCUGGGUCAUGUUAUAAGACAAAUGGACAGGGAGGGCAUGCUUCUCAAAAAAUGUGAGCUAUUGACUAAGACUAACAAUAUUUAUCUAGCUAUAUAAAAAUAAGAAAUGAAUAAGUUAAGACAACAGAGGAUUGAGCAUCA', 'binding signal', 5.66),
  ('chr1:89346535:89346536:+_ENSMUSG00000048000_ENSMUST00000174671|mus_hu|motif|central (ssRNA) RNA: GGGAGUUCUACAGUCCGACGAUCAGCUGCCUCUUAAACGAGACAAAUUUUCAGCAGAAGGGCCCAAAACAAAAUGGUCCGGGUCCUCUGAAGUAAAAAUAUUUAUGGGAAAAAUCAGUUUUUGUAAGAAAGAAAAAUUAAGAACAACAGAGGAUUGAGCAUCA', 'binding signal', 10.8),
  ('chr16:45382771:45382772:-_ENSMUSG00000022661_ENSMUST00000163230|mus_mus|mus_mus_mus_hu_True|18_18 (ssRNA) RNA: GGGAGUUCUACAGUCCGACGAUCCUGGGUCAUGUUAUAAGACAAAUGGACAGGGAGGGCAUGCUUCUCAAAAAAUGUGAGCUAUUGUCUAAGACUAACAAUAUUUAUCUAGCUAUAUAAAAAUAAGAAAUGAAUAAGUUAAGACAACAGAGGAUUGAGCAUCA', 'binding signal', 5.7),
  ('chr1:89346535:89346536:+_ENSMUSG00000048000_ENSMUST00000174671|mus_hu|FALSE|FALSE (ssRNA) RNA: GGGAGUUCUACAGUCCGACGAUCAGCUGCCUCUUAAACGAGACAAAUUUUCAGCAGAAGGGCCCAAAACAAAAUGGUCCUAGUCCUCUGAAGUAAAAAUAUUUAUGGGAAAAAUCAGUUUUUGUAAGAAAGAAAAAUUAAGAACAACAGAGGAUUGAGCAUCA', 'binding signal', 14.4),
  ('chr16:45382771:45382772:-_ENSMUSG00000022661_ENSMUST00000163230|mus_mus|mus_mus_mus_hu_True|18_98 (ssRNA) RNA: GGGAGUUCUACAGUCCGACGAUCCUGGGUCAUGUUAUGGGCCCAAUGGACAGGGAGGGCAUGCUUCUCAAAAAAUGUGAGCUAUUGUCUAAGACUAACAAUAUUUAUCUAGCUAUAUAAAAAUAAGAAAUGAAUAAGUUAAGACAACAGAGGAUUGAGCAUCA', 'binding signal', 5.27),
  ('chr16:45382771:45382772:-_ENSMUSG00000022661_ENSMUST00000163230|mus_mus|mus_mus_mus_hu_True|18_58 (ssRNA) RNA: GGGAGUUCUACAGUCCGACGAUCCUGGGUCAUGUUAUAAGACAAAUGGACAGGGAGGGCAUGCUUCUCAAAAAAUGUGAACUACUCUCUAAGACUAACAAUAUUUAUCUAGCUAUAUAAAAAUAAGAAAUGAAUAAGUUAAGACAACAGAGGAUUGAGCAUCA', 'binding signal', 7.97);

Now for the binder whose binding signal we want.
In: Field request: binding signal | item: chr16:45382771:45382772:-_ENSMUSG00000022661_ENSMUST00000163230|mus_mus|mus_mus_mus_hu_True|1_18 (ssRNA) RNA: GGGAGUUCUACAGUCCGACGAUCCUGGGUCAUGUUAUAAGACAAAUGGACAGGGAGGGCAUGCUUCUCAAAAAAUGUGAGCUAUUGUCUAAGACUAACAAUAUUUAUCUAGCUAUAUAAAAAUAAGAAAUGAAUAAACAUUACCAACAGAGGAUUGAGCAUCA
Out: 2.42
